Values compiled from patent US20240173440A1.

Test system: HT-1080.hFAP and HT-1080.wt xenografts
Assay: Quantitative biodistribution in HT-1080.hFAP and HT-1080.wt xenografted mice
Type: in vivo
Conditions: 1 h p.i., HT-1080.hFAP and HT-1080.wt xenografts
What Biodistribution Blood was measured for each of the following?
Could you give me the number in % IA/g? Just the number is fine.

Name the recorded Biodistribution Blood for CN(C(=O)CCC(=O)NCCNC(=O)CC[C@H](C(=O)O)N1CCN2CCN(CC1)CC(=O)[O][61Cu][O]C(=O)C2)c1ccc2nccc(C(=O)NCC(=O)N3CC(F)(F)C[C@H]3C#N)c2c1 [[^61Cu]Cu-NODAGA-F2] . 1.2

Another: CN(CCCN1CCN(C(=O)CCC(C(=O)O)N2CCN3CCN(CC2)CC(=O)[O][61Cu][O]C(=O)C3)CC1)c1ccc2nccc(C(=O)NCC(=O)N3CC(F)(F)C[C@H]3C#N)c2c1 (some centres unmarked) [[^61Cu]Cu-NODAGA-FAPI-46] 2.6

Another: CN(C(=O)CCC(=O)N1CCN(C(=O)CC[C@H](C(=O)O)N2CCN3CCN(CC2)CC(=O)[O][61Cu][O]C(=O)C3)CC1)c1ccc2nccc(C(=O)NCC(=O)N3CC(F)(F)C[C@H]3C#N)c2c1 [[^61Cu]Cu-NODAGA-F4] 1.4

Another: N#C[C@@H]1CC(F)(F)CN1C(=O)CNC(=O)c1ccnc2ccc(NC(=O)CCC(=O)NCCNC(=O)CC[C@H](C(=O)O)N3CCN4CCN(CC3)CC(=O)[O][61Cu][O]C(=O)C4)cc12 [[^61Cu]Cu-NODAGA-F1] 2.3

Another: N#C[C@@H]1CC(F)(F)CN1C(=O)CNC(=O)c1ccnc2ccc(NC(=O)CCC(=O)N3CCN(C(=O)CC[C@H](C(=O)O)N4CCN5CCN(CC4)CC(=O)[O][61Cu][O]C(=O)C5)CC3)cc12 [[^61Cu]Cu-NODAGA-F3] 1.7
